The reported numbers originate from the Human Domainome abundance scans (Beltran et al. 2025).

B1: Poly(rC)-binding protein 1, residues 278 to 350; numbered along this chain, Q15365 (parent)
chain: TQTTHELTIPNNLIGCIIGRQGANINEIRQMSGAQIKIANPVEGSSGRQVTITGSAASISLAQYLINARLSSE

Variants of: B1
Assay: abundance fitness (aPCA) (normalised: wild type 0, dead -1); higher = more abundant; growth selection in yeast, the domain comes from the species named
Settings: Homo sapiens
MEASURE: abundance fitness
Write no unit; give the number alone.

**Query** Need abundance fitness, item `Q21M`
**Result** -0.322

**Query** Item under review: `R20Q` . Reported abundance fitness?
**Result** -0.008

**Query** Give the measured abundance fitness of `G22T` .
**Result** -0.373
